src = patent US20220056014A1

Test: Pharmacokinetic test of cynomolgus monkeys
Assay type: in vivo
Details: male, plasma; cynomolgus monkey, oral gavage 20 mg/kg

[
  {
    "COMPOUND": "COc1ccc([C@@H]2CN(C(=O)[C@@H](O)CO)C[C@@]2(C)[C@@H](C)O)cc1OC1CN(c2ccc(C)c(C)n2)C1",
    "AUC(0-t) (ng·h/mL)": 44400
  },
  {
    "COMPOUND": "COc1ccc([C@@H]2CN(C(=O)[C@@H](O)CO)C[C@@]2(C)[C@@H](C)O)cc1OC1CN(c2ccc(C)cn2)C1 [Positive control compound, reference compound]",
    "AUC(0-t) (ng·h/mL)": 3640
  }
]

====

Experiment: Rat pharmacokinetic test
Type: in vivo, SD rats
Details: male, Sprague-Dawley (SD), plasma, oral gavage 10 mg/kg
Tmax values for the compounds below.

[
  {
    "COMPOUND": "COc1ccc([C@@H]2CN(C(=O)[C@@H](O)CO)C[C@@]2(C)[C@@H](C)O)cc1OC1CN(c2ccc(C)cn2)C1 [Positive control compound, reference compound]",
    "Tmax": "30 min"
  },
  {
    "COMPOUND": "COc1ccc([C@@H]2CN(C(=O)[C@@H](O)CO)C[C@@]2(C)[C@@H](C)O)cc1OC1CN(c2ccc(C)c(C)n2)C1",
    "Tmax": "30 min"
  },
  {
    "COMPOUND": "COc1ccc([C@@H]2CN(C(=O)[C@@H](O)CO)C[C@@]2(C)[C@@H](C)O)cc1OC1CN(c2cc(C)c(Cl)cn2)C1",
    "Tmax": "19.8 min"
  }
]

====

Experiment: Pharmacokinetic test of cynomolgus monkeys
Type: in vivo
Conditions: male, plasma; cynomolgus monkey, oral gavage 20 mg/kg
A collection of compounds and their measured Tmax

[
  {
    "COMPOUND": "COc1ccc([C@@H]2CN(C(=O)[C@@H](O)CO)C[C@@]2(C)[C@@H](C)O)cc1OC1CN(c2ccc(C)cn2)C1 [Positive control compound, reference compound]",
    "Tmax (h)": 1.5
  },
  {
    "COMPOUND": "COc1ccc([C@@H]2CN(C(=O)[C@@H](O)CO)C[C@@]2(C)[C@@H](C)O)cc1OC1CN(c2ccc(C)c(C)n2)C1 [Compound 007]",
    "Tmax (h)": 1.75
  }
]

====

Test: Pharmacokinetic test in canine
Assay type: in vivo, beagle dogs
Details: male, beagle, dog, plasma, oral gavage 5 mg/kg
compounds and their reported AUC(0-t)

[
  {
    "COMPOUND": "COc1ccc([C@@H]2CN(C(=O)[C@@H](O)CO)C[C@@]2(C)[C@@H](C)O)cc1OC1CN(c2ccc(C)c(C)n2)C1",
    "UNIT_ABBREVIATION": "ng·h/mL",
    "AUC(0-t)": 1690
  },
  {
    "COMPOUND": "COc1ccc([C@@H]2CN(C(=O)[C@@H](O)CO)C[C@@]2(C)[C@@H](C)O)cc1OC1CN(c2ccc(C)cn2)C1 [Positive control compound, reference compound]",
    "UNIT_ABBREVIATION": "ng·h/mL",
    "AUC(0-t)": 423
  },
  {
    "COMPOUND": "COc1ccc([C@@H]2CN(C(=O)[C@@H](O)CO)C[C@@]2(C)[C@@H](C)O)cc1OC1CN(c2cc(Cl)c(C)cn2)C1",
    "UNIT_ABBREVIATION": "ng·h/mL",
    "AUC(0-t)": 534
  },
  {
    "COMPOUND": "COc1ccc([C@@H]2CN(C(=O)[C@@H](O)CO)C[C@@]2(C)[C@@H](C)O)cc1OC1CN(c2cc(C)c(C)cn2)C1",
    "UNIT_ABBREVIATION": "ng·h/mL",
    "AUC(0-t)": 1760
  },
  {
    "COMPOUND": "COc1ccc([C@@H]2CN(C(=O)[C@@H](O)CO)C[C@@]2(C)[C@@H](C)O)cc1OC1CN(c2ccc(Cl)c(C)n2)C1",
    "UNIT_ABBREVIATION": "ng·h/mL",
    "AUC(0-t)": 1420
  },
  {
    "COMPOUND": "COc1ccc([C@@H]2CN(C(=O)[C@@H](O)CO)C[C@@]2(C)[C@@H](C)O)cc1OC1CN(c2cc(C)c(Cl)cn2)C1",
    "UNIT_ABBREVIATION": "ng·h/mL",
    "AUC(0-t)": 1640
  },
  {
    "COMPOUND": "COc1ccc([C@@H]2CN(C(=O)[C@@H](O)CO)C[C@@]2(C)[C@@H](C)O)cc1OC1CN(c2ncc(C)cc2F)C1",
    "UNIT_ABBREVIATION": "ng·h/mL",
    "AUC(0-t)": 1740
  }
]

====

The entries below come with measured Cmax values attached.
Test: Pharmacokinetic test of cynomolgus monkeys
Assay type: in vivo
Conditions: male, plasma; cynomolgus monkey, oral gavage 20 mg/kg
QUANTITY_NAME: Cmax (ng/mL)

[
  {
    "COMPOUND": "COc1ccc([C@@H]2CN(C(=O)[C@@H](O)CO)C[C@@]2(C)[C@@H](C)O)cc1OC1CN(c2ccc(C)cn2)C1 [Positive control compound, reference compound]",
    "READOUT_NUMBER": 565
  },
  {
    "COMPOUND": "COc1ccc([C@@H]2CN(C(=O)[C@@H](O)CO)C[C@@]2(C)[C@@H](C)O)cc1OC1CN(c2ccc(C)c(C)n2)C1 [Compound 007]",
    "READOUT_NUMBER": 13800
  }
]

====

Assay: Mouse pharmacokinetic test
Format: in vivo, CD-1 mice
Settings: male, CD-1, plasma, oral gavage 10 mg/kg
This section presents molecules with their documented Cmax values.
QUANTITY_NAME: Cmax (ng/mL)

[
  {
    "CHEMICAL_STRUCTURE": "CCOc1ccc(N2CC(Oc3cc([C@@H]4CN(C(=O)[C@@H](O)CO)C[C@@]4(C)[C@@H](C)O)ccc3OC)C2)nc1",
    "UNIT_ABBREVIATION": "ng/mL",
    "READOUT_NUMBER": 186
  },
  {
    "CHEMICAL_STRUCTURE": "COc1ccc([C@@H]2CN(C(=O)[C@@H](O)CO)C[C@@]2(C)[C@@H](C)O)cc1OC1CN(c2ccc(Cl)c(C)n2)C1",
    "UNIT_ABBREVIATION": "ng/mL",
    "READOUT_NUMBER": 316
  },
  {
    "CHEMICAL_STRUCTURE": "COc1ccc([C@@H]2CN(C(=O)[C@@H](O)CO)C[C@@]2(C)[C@@H](C)O)cc1OC1CN(c2ccc(C)c(C)n2)C1",
    "UNIT_ABBREVIATION": "ng/mL",
    "READOUT_NUMBER": 125
  }
]

====

Listing of recorded Tmax by entry.
Test: Pharmacokinetic test in canine
Type: in vivo, beagle dogs
Settings: male, beagle, dog, plasma, oral gavage 5 mg/kg
QUANTITY_NAME: Tmax (min)

[
  {
    "COMPOUND": "COc1ccc([C@@H]2CN(C(=O)[C@@H](O)CO)C[C@@]2(C)[C@@H](C)O)cc1OC1CN(c2cc(C)c(Cl)cn2)C1",
    "UNIT_ABBREVIATION": "min",
    "READOUT_NUMBER": 49.8
  },
  {
    "COMPOUND": "COc1ccc([C@@H]2CN(C(=O)[C@@H](O)CO)C[C@@]2(C)[C@@H](C)O)cc1OC1CN(c2cc(C)c(C)cn2)C1",
    "UNIT_ABBREVIATION": "min",
    "READOUT_NUMBER": 30
  },
  {
    "COMPOUND": "COc1ccc([C@@H]2CN(C(=O)[C@@H](O)CO)C[C@@]2(C)[C@@H](C)O)cc1OC1CN(c2cc(Cl)c(C)cn2)C1",
    "UNIT_ABBREVIATION": "min",
    "READOUT_NUMBER": 60
  },
  {
    "COMPOUND": "COc1ccc([C@@H]2CN(C(=O)[C@@H](O)CO)C[C@@]2(C)[C@@H](C)O)cc1OC1CN(c2ncc(C)cc2F)C1",
    "UNIT_ABBREVIATION": "min",
    "READOUT_NUMBER": 49.8
  },
  {
    "COMPOUND": "COc1ccc([C@@H]2CN(C(=O)[C@@H](O)CO)C[C@@]2(C)[C@@H](C)O)cc1OC1CN(c2ccc(C)c(C)n2)C1",
    "UNIT_ABBREVIATION": "min",
    "READOUT_NUMBER": 15
  },
  {
    "COMPOUND": "COc1ccc([C@@H]2CN(C(=O)[C@@H](O)CO)C[C@@]2(C)[C@@H](C)O)cc1OC1CN(c2ccc(C)cn2)C1 [Positive control compound, reference compound]",
    "UNIT_ABBREVIATION": "min",
    "READOUT_NUMBER": 55.2
  },
  {
    "COMPOUND": "COc1ccc([C@@H]2CN(C(=O)[C@@H](O)CO)C[C@@]2(C)[C@@H](C)O)cc1OC1CN(c2ccc(Cl)c(C)n2)C1",
    "UNIT_ABBREVIATION": "min",
    "READOUT_NUMBER": 49.8
  }
]
